The reported measurements were obtained from patent US20060205692A1.

Measured percent change in apoE secretion versus control at 100 µM, listed per entry.
Test system: ApoE
assay.summary: apoE secretion by PMA-differentiated THP-1 cells, apoE quantified by ELISA
Assay type: cell-based, human
cond: Homo sapiens, THP-1, 72 h, compound 100 μM, 1.25 nM PMA, 3 days
Only the number, expressed in %, is required.

CCOP(=O)(CC(c1cccc(OCCc2ccccn2)c1)P(=O)(OCC)OCC)OCC (centres unmarked) | 274
CCOP(=O)(OCC)C(c1ccc(O)cc1)P(=O)(OCC)OCC | 125
CCOP(=O)(CC(c1ccc(OCCN(C)c2ccccn2)cc1)P(=O)(OCC)OCC)OCC (centres unmarked) | 569
CC(C)OP(=O)(OC(C)C)C(c1ccc(O)cc1)P(=O)(OC(C)C)OC(C)C | 488

Proceeding to the next molecule to report its percent change in apoE secretion versus control at 100 µM.
QUERY: Which percent change in apoE secretion versus control at 100 µM is reported for this molecule? CCOP(=O)(OCC)C(c1ccc(OCCCO)cc1)P(=O)(OCC)OCC
RESULT: 20

* * *

Measured % ApoE Change, listed per entry.
Tested on: ApoE
assay.summary: apoE secretion by PMA-differentiated THP-1 cells, apoE quantified by ELISA
Assay type: cell-based, human
cond: compound 25 μM, 1.25 nM PMA, 3 days
Only the number, expressed in %, is required.

Solved cases below.
CCOP(=O)(OCC)C(c1ccc(OCc2ccc(C#N)cc2)cc1)P(=O)(OCC)OCC | 91
CCOP(=O)(OCC)C(c1ccc(OCCN2CCOCC2)cc1)P(=O)(OCC)OCC | −17
CCOP(=O)(OCC)C(c1ccc(OCCc2ccccn2)cc1)P(=O)(OCC)OCC | 57

QUERY: Which % ApoE Change is reported for this compound? CCOP(=O)(OCC)C(c1ccc(OCCN2CCCCC2)cc1)P(=O)(OCC)OCC
RESULT: −22

QUERY: Moving on to the next compound: CCOP(=O)(OCC)C(c1ccc(OCc2ccccn2)cc1)P(=O)(OCC)OCC
RESULT: 16

QUERY: Moving on to the next compound: CCOP(=O)(OCC)C(c1ccc(OCCCc2cccnc2)cc1)P(=O)(OCC)OCC
RESULT: 63

QUERY: Moving on to the next compound: COP(=O)(OC)C(c1ccc(O)cc1)P(=O)(OC)OC
RESULT: −7

QUERY: Moving on to the next compound: CCOP(=O)(OCC)C(c1ccc(OCCN2CCCC2)cc1)P(=O)(OCC)OCC
RESULT: −5

QUERY: Moving on to the next compound: CCOP(=O)(OCC)C(c1ccc(OCCN2C(=O)CCC2=O)cc1)P(=O)(OCC)OCC
RESULT: −51

QUERY: Moving on to the next compound: CCOc1ccc(C(CP(=O)(OCC)OCC)P(=O)(OCC)OCC)cc1 (stereo not shown)
RESULT: −16

* * *

Tested on: ApoE
assay.summary: apoE secretion by PMA-differentiated THP-1 cells, apoE quantified by ELISA
Type: cell-based, human
cond: compound 50 μM, 2.5 nM PMA, 3 days
reported.metric: % ApoE Change (%)
Only the number, expressed in %, is required.

Solved cases below.
CCOP(=O)(OCC)C(c1ccc(OCCN2C(=O)CCC2=O)cc1)P(=O)(OCC)OCC | 70
CCOP(=O)(OCC)C(c1ccc(OCCc2ccccn2)cc1)P(=O)(OCC)OCC | 73

QUERY: Which % ApoE Change is reported for this compound? CCOc1ccc(C(CP(=O)(OCC)OCC)P(=O)(OCC)OCC)cc1 (centres unmarked)
RESULT: 4

QUERY: Moving on to the next compound: CCOP(=O)(OCC)C(c1ccc(OCCN2CCCCC2)cc1)P(=O)(OCC)OCC
RESULT: 0

* * *

Measured % ApoE Change, listed per entry.
System: ApoE
assay.summary: apoE secretion by PMA-differentiated THP-1 cells, apoE quantified by ELISA
Assay type: cell-based, human
cond: compound 50 μM, 1.25 nM PMA, 3 days

CCOP(=O)(OCC)C(c1ccc(OCCN2CCCCC2)cc1)P(=O)(OCC)OCC | 6%

QUERY: Which % ApoE Change is reported for this compound? CCOP(=O)(OCC)C(c1ccc(OCc2ccc(C#N)cc2)cc1)P(=O)(OCC)OCC
RESULT: 192%

QUERY: Moving on to the next compound: CCOP(=O)(OCC)C(c1ccc(OCCN2CCOCC2)cc1)P(=O)(OCC)OCC
RESULT: −8%

* * *

Test system: ApoE
assay.summary: apoE secretion by PMA-differentiated THP-1 cells, apoE quantified by ELISA
Format: cell-based, human
cond: compound 50 μM, 2.5 nM PMA, 3 days
reported.metric: % ApoE Change (%)
Only the number, expressed in %, is required.

Solved cases below.
CCOP(=O)(OCC)C(c1ccc(OCCN2CCCC2)cc1)P(=O)(OCC)OCC | 7
COP(=O)(OC)C(c1ccc(O)cc1)P(=O)(OC)OC | −25
CCOP(=O)(OCC)C(c1ccc(OCCCc2cccnc2)cc1)P(=O)(OCC)OCC | 188
CCOP(=O)(CC(c1ccc(OCc2ccccn2)cc1)P(=O)(OCC)OCC)OCC (stereo not shown) | 158
CCOP(=O)(OCC)C(c1ccc(OCCN2CCOCC2)cc1)P(=O)(OCC)OCC | −27

QUERY: Which % ApoE Change is reported for this molecule? CCOP(=O)(OCC)C(c1ccc(OCc2ccccn2)cc1)P(=O)(OCC)OCC
RESULT: 192

QUERY: Moving on to the next molecule: CCOP(=O)(OCC)C(c1ccc(OCc2ccc(C#N)cc2)cc1)P(=O)(OCC)OCC
RESULT: 225

* * *

Test system: ApoE
assay.summary: apoE secretion by PMA-differentiated THP-1 cells, apoE quantified by ELISA
Type: cell-based, human
cond: compound 50 μM, 1.25 nM PMA, 3 days
Measured % ApoE Change, listed per entry.
Only the number, expressed in %, is required.

Solved cases below.
CCOP(=O)(OCC)C(c1ccc(OCc2ccccn2)cc1)P(=O)(OCC)OCC | 146
CCOP(=O)(OCC)C(c1ccc(OCCN2CCCC2)cc1)P(=O)(OCC)OCC | 2
CCOc1ccc(C(CP(=O)(OCC)OCC)P(=O)(OCC)OCC)cc1 (stereo not shown) | −12

QUERY: Which % ApoE Change is reported for this compound? COP(=O)(OC)C(c1ccc(O)cc1)P(=O)(OC)OC
RESULT: −27

QUERY: Moving on to the next compound: CCOP(=O)(OCC)C(c1ccc(OCCCc2cccnc2)cc1)P(=O)(OCC)OCC
RESULT: 103

QUERY: Moving on to the next compound: CCOP(=O)(OCC)C(c1ccc(OCCN2C(=O)CCC2=O)cc1)P(=O)(OCC)OCC
RESULT: 53

QUERY: Moving on to the next compound: CCOP(=O)(OCC)C(c1ccc(OCCc2ccccn2)cc1)P(=O)(OCC)OCC
RESULT: 133
